# Tested on: Escherichia coli TOP10
# TEST: shrunken log2 fold change of peptide-encoding DNA abundance (4.5 h post-induction vs induction); higher = less antimicrobial activity (less host growth inhibition)
# CONDITIONS: time post-induction: 4.5 h; library: site-saturation at positions 5, 18, 19, 20
Form field: shrunken log2 fold change (one value per entry).
The response must contain the number and no unit.

Some solved cases for reference:
>  <RECORD SEQUENCE>
RRIRERPPRLPRPRPRPTHSPRP

>  <shrunken log2 fold change>
-0.335

$$$$
>  <RECORD SEQUENCE>
RRIRIRPPRLPRPRPRPFWTPRP

>  <shrunken log2 fold change>
-0.353

$$$$

GET /values?readout=shrunken log2 fold change&system=Escherichia coli TOP10&item= RRIRGRPPRLPRPRPRPQEDPRP
0.291

GET /values?readout=shrunken log2 fold change&system=Escherichia coli TOP10&item= RRIRMRPPRLPRPRPRPWATPRP
0.194

* * *

# System: Escherichia coli TOP10
# TEST: shrunken log2 fold change of peptide-encoding DNA abundance (4.5 h post-induction vs induction); higher = less antimicrobial activity (less host growth inhibition)
# CONDITIONS: time post-induction: 4.5 h; library: site-saturation at positions 5, 18, 19, 20
READOUT LABEL: shrunken log2 fold change
The response must contain the number and no unit.

>  <RECORD SEQUENCE>
RRIRMRPPRLPRPRPRPDAIPRP

>  <SYSTEM UNDER TEST>
Escherichia coli TOP10

>  <shrunken log2 fold change>
0.164

$$$$
>  <RECORD SEQUENCE>
RRIRERPPRLPRPRPRPEGQPRP

>  <SYSTEM UNDER TEST>
Escherichia coli TOP10

>  <shrunken log2 fold change>
-0.015

$$$$
>  <RECORD SEQUENCE>
RRIRARPPRLPRPRPRPRFGPRP

>  <SYSTEM UNDER TEST>
Escherichia coli TOP10

>  <shrunken log2 fold change>
0.469

$$$$
>  <RECORD SEQUENCE>
RRIRLRPPRLPRPRPRPNPHPRP

>  <SYSTEM UNDER TEST>
Escherichia coli TOP10

>  <shrunken log2 fold change>
-0.07

$$$$
>  <RECORD SEQUENCE>
RRIRHRPPRLPRPRPRPRHKPRP

>  <SYSTEM UNDER TEST>
Escherichia coli TOP10

>  <shrunken log2 fold change>
-0.556

$$$$
>  <RECORD SEQUENCE>
RRIRLRPPRLPRPRPRPMRPPRP

>  <SYSTEM UNDER TEST>
Escherichia coli TOP10;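 also: peptides expressed intracellularly from a pBAD plasmid library in pooled LB shake-flask culture, induced with 0.3% L-arabinose, DNA abundance read by NGS, three biological replicates, DESeq2 with apeglm shrinkage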

>  <shrunken log2 fold change>
1.44

$$$$

Could you share which shrunken log2 fold change value was measured for RRIRRRPPRLPRPRPRPQFLPRP ?
-0.0792

Could you share which shrunken log2 fold change value was measured for RRIRFRPPRLPRPRPRPWYPPRP ?
-0.321

Could you share which shrunken log2 fold change value was measured for RRIRFRPPRLPRPRPRPCEMPRP ?
0.0297

Could you share which shrunken log2 fold change value was measured for RRIRVRPPRLPRPRPRPTKPPRP ?
0.172

Could you share which shrunken log2 fold change value was measured for RRIRSRPPRLPRPRPRPHLHPRP ?
-0.177

Could you share which shrunken log2 fold change value was measured for RRIRNRPPRLPRPRPRPNRVPRP ?
-0.0281

Could you share which shrunken log2 fold change value was measured for RRIRSRPPRLPRPRPRPCVTPRP ?
0.0116

Could you share which shrunken log2 fold change value was measured for RRIRYRPPRLPRPRPRPVHHPRP ?
-0.211

Could you share which shrunken log2 fold change value was measured for RRIRTRPPRLPRPRPRPCLDPRP ?
-0.405
